- assay.system: CDK9/CycT1 (Homo sapiens)
- Sequence (P50750 whole entry): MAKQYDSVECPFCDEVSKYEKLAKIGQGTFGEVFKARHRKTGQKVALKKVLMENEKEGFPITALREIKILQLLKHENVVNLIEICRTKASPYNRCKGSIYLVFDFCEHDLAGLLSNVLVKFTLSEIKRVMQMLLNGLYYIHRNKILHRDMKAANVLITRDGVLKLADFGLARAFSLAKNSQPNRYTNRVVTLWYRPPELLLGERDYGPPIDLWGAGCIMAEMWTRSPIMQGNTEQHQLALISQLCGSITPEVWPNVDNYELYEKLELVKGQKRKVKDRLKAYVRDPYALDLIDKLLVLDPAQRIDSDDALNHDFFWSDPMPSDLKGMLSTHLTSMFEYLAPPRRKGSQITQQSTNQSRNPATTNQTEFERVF
- Sequence (O60563 whole entry partner): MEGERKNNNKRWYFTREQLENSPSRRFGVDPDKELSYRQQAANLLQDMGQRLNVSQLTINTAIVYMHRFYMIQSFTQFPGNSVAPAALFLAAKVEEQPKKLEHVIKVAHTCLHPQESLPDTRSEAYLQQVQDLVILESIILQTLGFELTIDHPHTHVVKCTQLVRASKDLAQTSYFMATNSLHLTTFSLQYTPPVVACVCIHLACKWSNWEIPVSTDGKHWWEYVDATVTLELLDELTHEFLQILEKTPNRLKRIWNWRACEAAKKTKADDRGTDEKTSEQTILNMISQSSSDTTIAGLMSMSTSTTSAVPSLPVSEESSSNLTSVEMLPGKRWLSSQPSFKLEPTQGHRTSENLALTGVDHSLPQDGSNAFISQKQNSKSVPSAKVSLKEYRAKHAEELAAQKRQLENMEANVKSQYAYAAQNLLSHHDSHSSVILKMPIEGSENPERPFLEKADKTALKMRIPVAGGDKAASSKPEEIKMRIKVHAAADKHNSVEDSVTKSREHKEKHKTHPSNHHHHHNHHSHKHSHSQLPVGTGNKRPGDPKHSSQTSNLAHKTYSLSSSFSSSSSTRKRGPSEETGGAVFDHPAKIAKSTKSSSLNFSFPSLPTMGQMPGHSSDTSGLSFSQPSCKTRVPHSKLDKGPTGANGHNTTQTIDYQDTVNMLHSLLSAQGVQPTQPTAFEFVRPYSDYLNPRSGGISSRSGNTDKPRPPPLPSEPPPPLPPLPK
- assay.overview: Ligand efficiency and ligand lipophilic efficiency (DataWarrior)
- test.settings: LE=−RTlnIC50/N
observed.property: LE

NS(=O)(=O)c1cccc(Nc2nccc(-c3ccc(OC(F)(F)F)cc3)n2)c1 : 0.3129
NS(=O)(=O)c1cccc(Nc2nccc(-c3ccccc3)n2)c1 : 0.3869
COc1ccc(-c2ccnc(Nc3cccc(S(N)(=O)=O)c3)n2)cc1 : 0.3538
NS(=O)(=O)c1cccc(Nc2nccc(-c3ccccn3)n2)c1 : 0.3868
NS(=O)(=O)c1cccc(Nc2nccc(-c3ccncc3)n2)c1 : 0.3868
NS(=O)(=O)c1cccc(Nc2nccc(-c3ccc(Cl)cc3)n2)c1 : 0.3683
NS(=O)(=O)c1cccc(Nc2nccc(-c3ccc(F)cc3)n2)c1 : 0.3694
NS(=O)(=O)c1cccc(Nc2nccc(-c3cnccn3)n2)c1 : 0.3867
NS(=O)(=O)c1cccc(Nc2nccc(-c3ccc([N+](=O)[O-])cc3)n2)c1 : 0.3393

// provenance: paper PMC10254914
